Overview of reported IC50 across a group of compounds:
system: COLO205 colon cancer cell line; test: Cytotoxicity in vitro, COLO205 (CellTiter 96); assay type: cell-based; settings: Homo sapiens, COLO 205; 72 h incubation; read-out: COLO205 IC 50
A number alone suffices; assume nM.

Smiles Code: O=C(/C=C/c1ccccc1)N[C@@H](Cc1ccccc1)C(=O)Nc1ccc(C(=O)NO)cc1
IC50 (nM): 221
//
Smiles Code: COc1ccc(C[C@H](NC(=O)/C=C/c2ccc3c(c2)OCO3)C(=O)Nc2ccc(C(=O)NO)cc2)cc1
IC50 (nM): 146
//
Smiles Code: O=C(/C=C/c1ccc2c(c1)OCO2)N[C@@H](Cc1ccccc1)C(=O)Nc1ccc(C(=O)NO)cc1
IC50 (nM): 201

// query Record COc1ccc(C[C@H](NC(=O)/C=C/c2ccccc2)C(=O)Nc2ccc(C(=O)NO)cc2)cc1 : what is its IC50 with COLO205 colon cancer cell line?
// result 73

---

system: Pre-B leukemia cell line 697; experiment: Primary cytotoxicity screening, 697 cell line (CellTiter 96); type: cell-based; conditions: Table 1; 48 h incubation; read-out: CyTox697
// pIC50 lookup, one value per entry
Lab note — pIC50 values are minus log10 of concentrations in M.

Compound: COc1ccc(C[C@H](NC(=O)CCc2ccccc2)C(=O)Nc2ccc(C(=O)NO)cc2)cc1
Target Or System: Pre-B leukemia cell line 697
pIC50: 7.28
//
Compound: COc1ccc(C[C@H](NC(=O)/C=C/c2ccccc2)C(=O)Nc2ccc(C(=O)NO)cc2)cc1 [drawing 50]
Target Or System: Pre-B leukemia cell line 697
pIC50: 7.66
//
Compound: COc1ccc(C[C@H](NC(=O)Cc2ccccc2)C(=O)Nc2ccc(C(=O)NO)cc2)cc1
Target Or System: Pre-B leukemia cell line 697
pIC50: 7.14
//
Compound: COc1ccc(C[C@H](NC(=O)CCc2ccc3c(c2)OCO3)C(=O)Nc2ccc(C(=O)NO)cc2)cc1
Target Or System: Pre-B leukemia cell line 697
pIC50: 6.30
//
Compound: O=C(Cc1ccccc1)N[C@@H](Cc1ccccc1)C(=O)Nc1ccc(C(=O)NO)cc1
Target Or System: Pre-B leukemia cell line 697
pIC50: 7.05
//
Compound: O=C(Cc1ccc2c(c1)OCO2)N[C@@H](Cc1ccccc1)C(=O)Nc1ccc(C(=O)NO)cc1
Target Or System: Pre-B leukemia cell line 697
pIC50: 6.90
//
Compound: COc1ccc(C[C@H](NC(=O)/C=C/c2ccc3c(c2)OCO3)C(=O)Nc2ccc(C(=O)NO)cc2)cc1 [drawing 46]
Target Or System: Pre-B leukemia cell line 697
pIC50: 8.52
//
Compound: O=C(CCc1ccccc1)N[C@@H](Cc1ccccc1)C(=O)Nc1ccc(C(=O)NO)cc1
Target Or System: Pre-B leukemia cell line 697
pIC50: 6.11

// query So what does the record say about pIC50 for COc1ccc(C[C@H](NC(=O)COc2ccccc2)C(=O)Nc2ccc(C(=O)NO)cc2)cc1 ?
// result 7.36

// query pIC50 value for entry O=C(NO)c1ccc(NC(=O)[C@H](Cc2ccccc2)NC(=O)c2ccc3c(c2)OCO3)cc1
// result 7.74

// query Request the reported pIC50 associated with O=C(/C=C/c1ccccc1)N[C@@H](Cc1ccccc1)C(=O)Nc1ccc(C(=O)NO)cc1 [drawing 59]
// result 7.35

// query What does the record list as pIC50 for O=C(COc1ccccc1)N[C@@H](Cc1ccccc1)C(=O)Nc1ccc(C(=O)NO)cc1 ?
// result 7.23

---

test system: Colon cancer stem cells (CSC) CSC1; experiment: Cytotoxicity in vitro, colon cancer stem cells CSC1 (CellTiter-Glo); assay type: cell-based; details: Table 1; 72 h incubation; read-out: CSC1
Assign labels as follows, please: T for IC50 below 100 nM; F for IC50 equal to or exceeding 100 nM.

These solved cases illustrate the format of a correct answer.
Molecule: O=C(Cc1ccc2c(c1)OCO2)N[C@@H](Cc1ccccc1)C(=O)Nc1ccc(C(=O)NO)cc1
Target Or System: Colon cancer stem cells (CSC) CSC1
Assigned Label: F

Molecule: COc1ccc(C[C@H](NC(=O)c2ccc3c(c2)OCO3)C(=O)Nc2ccc(C(=O)NO)cc2)cc1
Target Or System: Colon cancer stem cells (CSC) CSC1
Assigned Label: T

Molecule: O=C(CCc1ccccc1)N[C@@H](Cc1ccccc1)C(=O)Nc1ccc(C(=O)NO)cc1
Target Or System: Colon cancer stem cells (CSC) CSC1
Assigned Label: F

// query is_below(IC50, 100 nM) for COc1ccc(C[C@H](NC(=O)Cc2ccccc2)C(=O)Nc2ccc(C(=O)NO)cc2)cc1 ?
// result F

// query Just wondering, is IC50 of COc1ccc(C[C@H](NC(=O)CCc2ccc3c(c2)OCO3)C(=O)Nc2ccc(C(=O)NO)cc2)cc1 below 100 nM?
// result F

// query IC50 under 100 nM? Item: COc1ccc(C[C@H](NC(=O)/C=C/c2ccc3c(c2)OCO3)C(=O)Nc2ccc(C(=O)NO)cc2)cc1 [drawing 46]
// result F

// query Does COc1ccc(C[C@H](NC(=O)/C=C/c2ccccc2)C(=O)Nc2ccc(C(=O)NO)cc2)cc1 [drawing 50] have IC50 strictly under 100 nM?
// result T

// query Does the reported IC50 of COc1ccc(C[C@H](NC(=O)CCc2ccccc2)C(=O)Nc2ccc(C(=O)NO)cc2)cc1 stay below 100 nM?
// result F

---

test system: HCT116 cells; assay: Cytotoxicity in vitro, HCT116 (CellTiter 96 Aqueous One Solution); type: cell-based, human; conditions: Homo sapiens, HCT-116; Table 2; 72 h incubation; read-out: HCT-116 IC 50
# key: entry, value: IC50
Enter your answer as a number in nM; do not include the unit.

Worked examples, 3 molecules total:
Molecule: O=C(/C=C/c1ccc2c(c1)OCO2)N[C@@H](Cc1ccccc1)C(=O)Nc1ccc(C(=O)NO)cc1 [Compound 4D]
IC50 [nM]: 19

Molecule: COc1ccc(C[C@H](NC(=O)/C=C/c2ccc3c(c2)OCO3)C(=O)Nc2ccc(C(=O)NO)cc2)cc1 [Compound 1D]
IC50 [nM]: 18

Molecule: O=C(/C=C/c1ccccc1)N[C@@H](Cc1ccccc1)C(=O)Nc1ccc(C(=O)NO)cc1 [Compound 5D]
IC50 [nM]: 14

Now turn to the next molecule.
// query Give HCT116 cells IC50 for COc1ccc(C[C@H](NC(=O)/C=C/c2ccccc2)C(=O)Nc2ccc(C(=O)NO)cc2)cc1 [Compound 2D]
// result 14

---

test system: Pre-B leukemia cell line 697; assay: Primary cytotoxicity screening, 697 cell line (CellTiter 96); type: cell-based; conditions: Table 1; 48 h incubation; read-out: CyTox697
Readings of IC50 for the listed molecules
Write it as a number; the unit µM goes unstated.

Molecule: O=C(CCc1ccc2c(c1)OCO2)N[C@@H](Cc1ccccc1)C(=O)Nc1ccc(C(=O)NO)cc1
Output Unit: µM
IC50: 0.203

Molecule: COc1ccc(C[C@H](NC(=O)Cc2ccc3c(c2)OCO3)C(=O)Nc2ccc(C(=O)NO)cc2)cc1
Output Unit: µM
IC50: 0.168

Molecule: COc1ccc(C[C@H](NC(=O)c2ccccc2)C(=O)Nc2ccc(C(=O)NO)cc2)cc1
Output Unit: µM
IC50: 0.054

// query # get_value(readout= IC50, system= Pre-B leukemia cell line 697) for O=C(/C=C/c1ccc2c(c1)OCO2)N[C@@H](Cc1ccccc1)C(=O)Nc1ccc(C(=O)NO)cc1 [drawing 55]
// result 0.085

// query Item: O=C(NO)c1ccc(NC(=O)[C@H](Cc2ccccc2)NC(=O)c2ccccc2)cc1 Test system: Pre-B leukemia cell line 697 Read-out: IC50 Value: ?
// result 0.105

// query For Pre-B leukemia cell line 697, provide IC50 of COc1ccc(C[C@H](NC(=O)c2ccc3c(c2)OCO3)C(=O)Nc2ccc(C(=O)NO)cc2)cc1 please.
// result 0.021

---

system: Colon cancer stem cells (CSC) CSC1; assay: Cytotoxicity in vitro, colon cancer stem cells CSC1 (CellTiter-Glo); type: cell-based; details: Table 1; 72 h incubation; read-out: CSC1
Listed below: IC50 values for each entry.
Could you give me the number in nM? Just the number is fine.

Observe how each entry below is paired with its result.
Compound: O=C(/C=C/c1ccccc1)N[C@@H](Cc1ccccc1)C(=O)Nc1ccc(C(=O)NO)cc1 [drawing 59]
Output Unit: nM
Data Value: 73
//
Compound: O=C(NO)c1ccc(NC(=O)[C@H](Cc2ccccc2)NC(=O)c2ccccc2)cc1
Output Unit: nM
Data Value: 96

// query What value of IC50 has been reported for the following compound? O=C(Cc1ccccc1)N[C@@H](Cc1ccccc1)C(=O)Nc1ccc(C(=O)NO)cc1
// result 192

// query // lookup IC50 for COc1ccc(C[C@H](NC(=O)Cc2ccc3c(c2)OCO3)C(=O)Nc2ccc(C(=O)NO)cc2)cc1
// result 280

// query Given the entry O=C(CCc1ccc2c(c1)OCO2)N[C@@H](Cc1ccccc1)C(=O)Nc1ccc(C(=O)NO)cc1 , report its measured IC50.
// result 336

// query What IC50 value was documented for this compound, COc1ccc(C[C@H](NC(=O)c2ccccc2)C(=O)Nc2ccc(C(=O)NO)cc2)cc1 ?
// result 48

// query Could you share which IC50 value was measured for O=C(/C=C/c1ccc2c(c1)OCO2)N[C@@H](Cc1ccccc1)C(=O)Nc1ccc(C(=O)NO)cc1 [drawing 55] ?
// result 37

// query I have this compound here, O=C(COc1ccccc1)N[C@@H](Cc1ccccc1)C(=O)Nc1ccc(C(=O)NO)cc1 , and I need its recorded IC50.
// result 424
